Attribution: patent US20210206856A1

# assayed system: T1, human MAdCAM expressed on cells (human, UniProt Q13477 19-382)
# T1 construct: whole, on cells; also called MADCAM1
# T1 sequence (looked up): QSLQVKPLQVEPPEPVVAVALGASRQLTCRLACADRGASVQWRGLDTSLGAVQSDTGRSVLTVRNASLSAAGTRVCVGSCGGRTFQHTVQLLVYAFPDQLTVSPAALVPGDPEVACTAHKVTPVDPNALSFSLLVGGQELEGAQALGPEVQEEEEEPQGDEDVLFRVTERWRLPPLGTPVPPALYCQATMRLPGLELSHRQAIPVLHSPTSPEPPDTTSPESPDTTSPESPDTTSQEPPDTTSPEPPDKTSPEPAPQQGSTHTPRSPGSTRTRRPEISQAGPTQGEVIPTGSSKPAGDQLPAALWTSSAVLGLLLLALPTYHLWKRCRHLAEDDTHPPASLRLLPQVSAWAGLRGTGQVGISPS
# test method notes: cell binding
test readout: binding result

>>> measurement("MAdCAM Antibody Table 2 Clone 54 (antibody, human IgG1, V domains shown) VH: QVQLVQSGAEVKKPGSSVKVSCKASGGTLSRYGVSWVRQAPGQGLEWMGGIIPIFGTTNYAQKFQGRVTITADESTSTAYMELSSLRSEDTAVYYCARDRVYYDSSGYPTWYFDLWGRGTLVTVSS VL: EIVMTQSPATLSVSPGERATLSCRASQSVSSSYLAWYQQKPGQAPRLLIYGASTRATGIPARFSGSGSGTEFTLTISSLQSEDFAVYYCQQYGSSPITFGQGTKVEIK")
"binds"
>>> measurement("MAdCAM Antibody Table 2 Clone 73 (antibody, human IgG1, V domains shown) VH: QVQLVQSGAEVKKPGASVKVSCKASGYTFTSNYVHWVRQAPGQGLEWMGRINPHSGDTSYAQKFQGRVTMTRDTSTSTVYMELSSLRSEDTAVYYCARAGQLWSDWYFDLWGRGTLVTVSS VL: DIQMTQSPSSLSASVGDRVTITCQASQDIRNYLNWYQQKPGKAPKLLIYAATALRTGVPSRFSGSGSGTDFTLTISSLQPEDFATYYCQQSYSHPLTFGQGTKVEIK")
"binds"
>>> measurement("MAdCAM Antibody Table 2 Clone 43 (antibody, human IgG1, V domains shown) VH: QVQLVQSGAEVKKPGASVKVSCKASGYTFTSYGISWVRQAPGQGLEWMGWMHPKSGDTGLTQKFQGRVTMTRDTSTSTVYMELSSLRSEDTAVYYCARDTPYYYYGMDVWGQGTTVTVSS VL: DIQMTQSPSSLSASVGDRVTITCRASQSISSWLAWYQQKPGKAPKLLIYAASSLQSGVPSRFSGSGSGTDFTLTISSLQPEDFATYYCQQSYSVPITFGQGTKVEIK")
"binds"
